All figures here come from the supplement of paper PMC10567573.

B1: NECAB1 (parent)
chain: NLDTEELCEYFSQHLGEYENVLAA

# Variants of: B1
# test_method_notes: protein stability index of a GFP-peptide fusion (GPS, HEK-293T) (PSI 1-6); higher = more stable;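 further: lentivirally expressed fusions sorted by FACS into six bins by GFP to DsRed ratio, PSI derived from sequencing read proportions per bin multiplied by bin number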
# applied_conditions: c terminus: a fixed tail appended
Respond with true for protein stability index values of 4 and above, false for values below.

// known answers, use as guide
NLDTEELCESFSQHLGEYENVLAA [Y10S] | true
NLDTEELCETFSQHLGEYENVLAA [Y10T] | true
NLDTEELCEYFSQHLGEYNNVLAA [E19N] | false
NLDTEELCEYFSEHLGEYENVLAA [Q13E] | false
NLDTEELCEYFSQYLGEYENVLAA [H14Y] | false
NLDTERLCEYFSQHLGEYENVLAA [E6R] | false
NLDTEELCEYFSHHLGEYENVLAA [Q13H] | false
ILDTEELCEYFSQHLGEYENVLAA [N1I] | false
NLDQEELCEYFSQHLGEYENVLAA [T4Q] | false
NLDTEELCEYFSFHLGEYENVLAA [Q13F] | false

Q. Does protein stability index meet or surpass 4 for NLDTEELPEYFSQHLGEYENVLAA [C8P] ?
A. true

Q. Is it the case that NLDTEELCEYDSQHLGEYENVLAA [F11D] has protein stability index reaching or exceeding 4?
A. true

Q. Does the variant NLDTEELFEYFSQHLGEYENVLAA [C8F] have recorded protein stability index that is 4 or more?
A. false

Q. Entry NLDTEELCEYFSQVLGEYENVLAA [H14V] : is its protein stability index no less than 4?
A. false

Q. Is it the case that NADTEELCEYFSQHLGEYENVLAA [L2A] has protein stability index reaching or exceeding 4?
A. false

Q. Has NLDTEELCEYFSQHLGEKENVLAA [Y18K] a recorded protein stability index greater than or equal to 4?
A. true

Q. Quick check, protein stability index >= 4? NLDTEELCEYFSQHLGEYSNVLAA [E19S]
A. false

Q. // inclusive: protein stability index at least 4? input: NLDTEELCEYFSQHLGEYENVLAH [A24H]
A. false

Q. Is protein stability index for NLDEEELCEYFSQHLGEYENVLAA [T4E] at or above 4?
A. true

Q. For this variant, is measured protein stability index 4 or higher? NLDTEELCEYFSQHLGEYFNVLAA [E19F]
A. false

Q. Does protein stability index meet or surpass 4 for NLDTEELCEYQSQHLGEYENVLAA [F11Q] ?
A. true

Q. Is protein stability index for NLDTEELCEYFKQHLGEYENVLAA [S12K] at or above 4?
A. false

Q. Can NLWTEELCEYFSQHLGEYENVLAA [D3W] be said to have protein stability index at or above 4?
A. false

Q. Determine whether this variant has protein stability index no lower than 4: NLDTEEDCEYFSQHLGEYENVLAA [L7D]
A. true

Q. Tell me whether protein stability index is at least 4 here: NLDTEELCEYFSQHGGEYENVLAA [L15G]
A. true

Q. # bool: protein stability index of NLDTEELCEYFSQHTGEYENVLAA [L15T] >= 4
A. false

Q. In plain terms: is recorded protein stability index at least 4 for NLDTEELCEYFSQHLLEYENVLAA [G16L] ?
A. false
